target: KATP channels (Homo sapiens, UniProt O60706+Q14654); construct: TE671 human medulloblastoma cells were obtained from ATCC; test: Potassium Channel Assay (FLIPR membrane potential, TE671 cells); details: TE671 human medulloblastoma cells, Membrane Potential Assay Dye, room temperature, hyperpolarization from KATP channel opening
Sequence (O60706 1-1549 isoform O60706-2): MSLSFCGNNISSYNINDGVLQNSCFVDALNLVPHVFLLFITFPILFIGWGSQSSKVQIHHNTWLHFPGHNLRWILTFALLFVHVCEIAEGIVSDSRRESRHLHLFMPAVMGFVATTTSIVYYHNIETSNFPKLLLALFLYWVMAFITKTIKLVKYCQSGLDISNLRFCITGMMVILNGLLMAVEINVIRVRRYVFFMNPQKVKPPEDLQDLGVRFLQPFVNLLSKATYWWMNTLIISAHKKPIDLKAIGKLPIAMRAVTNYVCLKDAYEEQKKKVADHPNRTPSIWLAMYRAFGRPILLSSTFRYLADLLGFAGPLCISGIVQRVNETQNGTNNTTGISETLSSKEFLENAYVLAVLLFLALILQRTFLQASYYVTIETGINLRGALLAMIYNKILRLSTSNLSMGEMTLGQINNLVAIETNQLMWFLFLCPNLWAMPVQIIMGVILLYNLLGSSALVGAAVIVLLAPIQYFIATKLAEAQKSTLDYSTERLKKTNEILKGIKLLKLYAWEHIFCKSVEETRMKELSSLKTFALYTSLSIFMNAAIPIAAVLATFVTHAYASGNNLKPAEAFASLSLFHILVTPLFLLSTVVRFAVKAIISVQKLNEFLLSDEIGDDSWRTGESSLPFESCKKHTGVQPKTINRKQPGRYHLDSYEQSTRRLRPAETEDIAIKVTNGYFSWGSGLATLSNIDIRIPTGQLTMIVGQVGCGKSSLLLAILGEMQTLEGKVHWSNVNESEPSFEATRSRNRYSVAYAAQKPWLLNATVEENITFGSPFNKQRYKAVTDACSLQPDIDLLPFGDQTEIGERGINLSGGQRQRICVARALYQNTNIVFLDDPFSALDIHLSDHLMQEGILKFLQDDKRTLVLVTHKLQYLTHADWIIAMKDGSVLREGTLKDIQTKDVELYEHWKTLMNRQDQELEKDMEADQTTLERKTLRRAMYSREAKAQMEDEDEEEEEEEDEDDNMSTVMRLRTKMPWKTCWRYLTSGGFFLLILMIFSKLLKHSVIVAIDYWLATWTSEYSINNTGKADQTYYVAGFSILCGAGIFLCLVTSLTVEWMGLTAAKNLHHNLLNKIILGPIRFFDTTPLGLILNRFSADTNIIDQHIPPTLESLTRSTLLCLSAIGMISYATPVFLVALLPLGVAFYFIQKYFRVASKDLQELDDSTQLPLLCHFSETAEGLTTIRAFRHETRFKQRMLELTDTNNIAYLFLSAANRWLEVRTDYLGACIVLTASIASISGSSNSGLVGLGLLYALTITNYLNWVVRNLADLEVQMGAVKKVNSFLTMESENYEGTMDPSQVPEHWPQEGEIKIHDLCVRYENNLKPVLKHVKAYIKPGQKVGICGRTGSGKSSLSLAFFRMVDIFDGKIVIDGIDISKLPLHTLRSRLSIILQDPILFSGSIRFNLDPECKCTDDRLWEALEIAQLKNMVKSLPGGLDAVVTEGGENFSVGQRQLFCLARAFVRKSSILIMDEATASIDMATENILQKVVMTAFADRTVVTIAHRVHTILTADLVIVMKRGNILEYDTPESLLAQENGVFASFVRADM
Sequence (Q14654 whole entry): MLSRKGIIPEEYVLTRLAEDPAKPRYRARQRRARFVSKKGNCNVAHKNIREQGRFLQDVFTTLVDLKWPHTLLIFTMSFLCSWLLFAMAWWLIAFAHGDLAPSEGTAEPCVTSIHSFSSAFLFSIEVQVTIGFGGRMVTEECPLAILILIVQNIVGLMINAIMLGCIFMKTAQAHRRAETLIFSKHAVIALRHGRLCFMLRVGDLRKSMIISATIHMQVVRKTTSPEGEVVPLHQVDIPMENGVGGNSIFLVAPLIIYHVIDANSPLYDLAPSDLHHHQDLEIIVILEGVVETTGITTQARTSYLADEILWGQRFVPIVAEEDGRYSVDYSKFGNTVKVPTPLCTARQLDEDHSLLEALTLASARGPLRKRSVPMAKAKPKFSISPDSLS
pEC50: −log10 of the molar value.
recordedMetric: pEC50

CC1(C)Oc2ccc(S(=O)(=O)c3ccccc3)cc2[C@@H](Nc2noc3c(Cl)cccc23)[C@@H]1O: < 4.52
CC1(C)C=C(n2c(N)nc3cc(Cl)ccc32)c2cc(C#N)ccc2O1: < 4.52

Please look at the following compound next.
IN: Given CC1(C)Oc2ccncc2[C@@H](Nc2nc3cc(Cl)ccc3o2)[C@@H]1O (racemic) , state its recorded pEC50.
OUT: < 4.52

====

Kindly state EC50 for each of the entries shown.
molecular target: KATP channels (Homo sapiens, UniProt O60706+Q14654); construct: TE671 human medulloblastoma cells were obtained from ATCC; assay: Potassium Channel Assay (FLIPR membrane potential, TE671 cells); conditions: TE671 human medulloblastoma cells, Membrane Potential Assay Dye, room temperature, hyperpolarization from KATP channel opening

CCN(CC)S(=O)(=O)c1ccc2c(c1)[C@@H](n1oc3ccc(Cl)cc3c1=O)[C@H](O)C(C)(C)O2: > 30 µM

# per-item lookup of EC50; items listed below
1. CC1(C)Oc2ccc(C#N)cc2[C@@H](n2ccnc2-c2ccccc2)[C@@H]1O (racemic)
2. CC1(C)Oc2ccc(C#N)cc2[C@@H](NP(=O)(c2ccccc2)c2ccccc2)[C@@H]1O
3. CC1(C)Oc2ccc(C#N)cc2[C@@H](Nc2noc3cc(Cl)ccc23)[C@@H]1O

OUT:
["> 30 µM", "> 30 µM", "6.18 µM"]

====

target: KATP channels (Homo sapiens, UniProt O60706+Q14654); construct: TE671 human medulloblastoma cells were obtained from ATCC; assay: Potassium Channel Assay (FLIPR membrane potential, TE671 cells); details: TE671 human medulloblastoma cells, Membrane Potential Assay Dye, room temperature, hyperpolarization from KATP channel opening
recordedMetric: EC50 (µM)
Give bare numbers, in µM.

Cc1cccc2c(=O)n([C@@H]3c4cc(C#N)ccc4OC(C)(C)[C@H]3O)oc12: 22.6
CC1(C)Oc2ccc(C#N)cc2[C@@H](Oc2noc3ccccc23)[C@@H]1O: 6.94

Please look at the following compound next.
IN: Give recorded EC50 with KATP channels (Homo sapiens, UniProt O60706+Q14654) for the following compound: CC1(C)Oc2cc(Cl)c(Cl)cc2[C@@H](Oc2noc3cc(Cl)ccc23)[C@@H]1O
OUT: 20.5
